- Target or system: apical domain of CD71 (Screen 3: 'cynomolgus apical domain of human CD71') (cynomolgus (as paragraph 454 words it; ambiguous))
- Procedure details: primary ELISA
Metric: RLU (RLU)
Answers are plain numbers, in RLU.

I'm hoping you can list RLU for every binder here, please.
1. CD71-binding FN3 domain SEQ ID NO: 274 (designed binder) MSLPAPKNLVVSRVTEDSARLSWTAPDAAFDSFEIVYWEQVGVGEAIVLTVPGSERSYDLTGLKPGTEYWVQIGGVKGGGFSEPLSAIFTT
2. CD71-binding FN3 domain SEQ ID NO: 250 (designed binder) MSLPAPKNLVVSRVTEDSARLSWTAPDAAFDSFEIGYFENLYLGEAIVLTVPGSERSYDLTGLKPGTEYWVQIGGVNGGNWSAPLSAIFTT
3. CD71-binding FN3 domain SEQ ID NO: 241 (designed binder) MSLPAPKNLVVSRVTEDSARLSWTAPDAAFDSFMIAYDEFIVWGEAVVLTVPGSERSYDLTGLKPGTEYLVEILGVKGGTISGPLSAIFTT
4. CD71-binding FN3 domain SEQ ID NO: 293 (designed binder) MSLPAPKNLVVSRVTEDSARLSWTAPDAAFDSFFIGYLEPQPPGEAIDLYVPGSERSYDLTGLKPGTEYNVTIQGVKGGFPSHPLVATFTT

4.64e+06
5.11e+06
6.21e+06
6.72e+06

// for each binder below, give its RLU
1. CD71-binding FN3 domain SEQ ID NO: 273 (designed binder) MLPAPKNLVVSRVTEDSARLSWTAPDAAFDSFEISYWEHTFNGEAIILFVPGSERSYDLTGLKPGTEYYVTIGGVKGGAWSPPLWAEFTT
2. CD71-binding FN3 domain SEQ ID NO: 234 (designed binder) MSLPAPKNLVVSRVTEDSARLSWTAPDAAFDSFFIGYLEPQPPGEAIALYVPGSERSYDLTGLKPGTEYNVTIQGVKGGFPSEPLVAHFTT
3. CD71-binding FN3 domain SEQ ID NO: 248 (designed binder) MSLPAPKNLVVSRVTEDSARLSWTAPDAAFDSFEIGYFENLYLGEAIVLTVPGSERSYDLTGLKPGTEYVVFIGGVKGGDFSPPLSAIFTT
4. CD71-binding FN3 domain SEQ ID NO: 324 (designed binder) MSLPAPKNLVVSRITEDSARLSWTAPDAAFDSFEIGYFENLYLGEAIVLTVPGSERSYDLTGLKPGTEYWVQIGGVKGGNWSAPLSAISTT
5. CD71-binding FN3 domain SEQ ID NO: 235 (designed binder) MSLPAPKNLVVSRVTEDSARLSWTAPDAAFDSFEIVYAEPVRFGEAIVLTVPGSERSYDLTGLKPGTEYWVQIGGVKGGNWSAPLSAIFTT
6. CD71-binding FN3 domain SEQ ID NO: 327 (designed binder) MSLPAPKNLVVSRVTEDSARLSWTAPDAAFDSFEIGYWENAYKGEAIVLTVPGSERSYDLTGLKPGTEYWVQIGGVKGGNWSAPLSAIFTT
7. CD71-binding FN3 domain SEQ ID NO: 330 (designed binder) MSLPAPKNLVVSRVTEDSARLSWTAPDAAFDSFEIGYFENLYLGEAIVLTVPGSERSYDLTGLKPGTEYWVQIGGVKGGNWSAPLSAIVTT
8. CD71-binding FN3 domain SEQ ID NO: 266 (designed binder) MSLPAPKNLVVSRVTEDSARLSWTAPDAAFDSFFIGYLEPQPPGEAIYLLVPGSERSYDLTGLKPGTEYNVTIQGVKGGFPSLPLVATFTT

1: 6.05e+06; 2: 7.51e+06; 3: 5.12e+06; 4: 4.92e+06; 5: 5.63e+06; 6: 4.24e+06; 7: 4.31e+06; 8: 7.41e+06

# per-item lookup of RLU; items listed below
1. CD71-binding FN3 domain SEQ ID NO: 281 (designed binder) MSLPAPKNLVVSRVTEDSARLSWTAPDAAFDSFFIGYLEPQPPGEAIALYVPGSERSYDLTGLKPGTEYNVTIQGVKGGFPSEPLIANFTT
2. CD71-binding FN3 domain SEQ ID NO: 306 (designed binder) MSLPAPKNLVVSRVTEDSARLSWTAPDAAFDSFEIGHFENLYLGEAIVLTVPGSERSYDLTGLKPGIEYWVQIGGVKGGVWSVSLSAIFTT
3. CD71-binding FN3 domain SEQ ID NO: 301 (designed binder) MSLPAPKNLVVSRVTEDSARLSWTTPDAAFDSFEIGYFENLYLGEAIVLTVPGSERSYDLTGLKPGTEYWVQIGGVKGGNWSAPLSAIFTT
4. CD71-binding FN3 domain SEQ ID NO: 251 (designed binder) MSLPAPKNLVVSRVTEDSARLSWTAPDAAFDSFEIGYFENLYLGEAIVLTVPGSERSYDLTGLKPGTEYWVQIGGVKGGNWSAPLVATFTT
5. CD71-binding FN3 domain SEQ ID NO: 280 (designed binder) MSLPAPKNLVVSRVTEDSARLSWTALDAAFDSFEIGYFENLYLGEAIVLTVPGSERSYDLTGLKPGTEYWVQIGGVKGGNWSAPLSAIFTT

["6.93e+06", "4.74e+06", "4.53e+06", "5.1e+06", "4.97e+06"]

Entry under review: CD71-binding FN3 domain SEQ ID NO: 292 (designed binder) MSLPAPKNLVVSRVTEDSARLSWTAPDAAFDSFEIGYWENAYKGEAIVLTVPGSERSYDLTGLKPGTEYVVFIGGVKGGVWSVSLSAIFTT . Reported RLU?
5.29e+06

These entries and their values trace back to patent US20260151494A1.
